molecular target: BBN receptor (Rattus norvegicus)
Sequence (P52500 whole entry): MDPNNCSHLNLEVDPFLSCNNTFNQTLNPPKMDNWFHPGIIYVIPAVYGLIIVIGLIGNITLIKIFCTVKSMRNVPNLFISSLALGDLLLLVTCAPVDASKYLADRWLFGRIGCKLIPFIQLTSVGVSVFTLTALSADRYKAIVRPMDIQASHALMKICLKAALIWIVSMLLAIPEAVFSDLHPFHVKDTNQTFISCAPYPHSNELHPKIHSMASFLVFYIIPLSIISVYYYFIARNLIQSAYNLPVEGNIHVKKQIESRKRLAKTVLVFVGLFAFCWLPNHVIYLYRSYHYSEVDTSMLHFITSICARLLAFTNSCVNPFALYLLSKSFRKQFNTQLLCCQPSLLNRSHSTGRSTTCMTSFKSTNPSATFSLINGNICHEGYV
pKd: −log10 of the molar value. Positions of bridges follow the written chain, without caps; N, C: chain ends. Non-standard residues stand in square brackets, D forms with d. Residues, ends and D or L forms follow the SMILES beside them.
Listed below: pKd values for each entry.

{"molecule": "CC(=O)N[C@@H]1CCCCNC(=O)[C@H](CC(C)C)NC(=O)[C@H](Cc2c[nH]cn2)NC(=O)[C@@H](C)NC(=O)[C@H](C(C)C)NC(=O)[C@H](C)NC(=O)[C@H](Cc2c[nH]c3ccccc23)NC(=O)[C@H](CCC(N)=O)NC(=O)[C@H](CC(N)=O)NC1=O [PTC 804] (Ac-[dK]NQWAV[dA]HL; lactam 1-C)", "assayed.target": "BBN receptor (Rattus norvegicus)", "result": "< 5.52"}

response.value for CC(=O)N[C@H]1CCCCNC(=O)[C@H](CC(C)C)NC(=O)[C@H](Cc2c[nH]cn2)NC(=O)[C@@H](C)NC(=O)[C@H](C(C)C)NC(=O)[C@H](C)NC(=O)[C@H](Cc2c[nH]c3ccccc23)NC(=O)[C@H](CCC(N)=O)NC(=O)[C@H](CC(N)=O)NC1=O [PTC 806] (Ac-KNQWAV[dA]HL; lactam 1-C) (field: pKd) = < 5.52

* * *

Listed below: IC50 values for each entry.
molecular target: BBN receptor (Homo sapiens); construct: endogenous in cells; host or cells: NCI-H345 (human SCLC); assay: Inhibition of [125I]Tyr4-BBN binding to SCLC NCI-H345 membranes; details: 50% inhibition of specific [125I]Tyr4-BBN binding, NCI-H345; read-out: IC50
Sequence (P30550 whole entry): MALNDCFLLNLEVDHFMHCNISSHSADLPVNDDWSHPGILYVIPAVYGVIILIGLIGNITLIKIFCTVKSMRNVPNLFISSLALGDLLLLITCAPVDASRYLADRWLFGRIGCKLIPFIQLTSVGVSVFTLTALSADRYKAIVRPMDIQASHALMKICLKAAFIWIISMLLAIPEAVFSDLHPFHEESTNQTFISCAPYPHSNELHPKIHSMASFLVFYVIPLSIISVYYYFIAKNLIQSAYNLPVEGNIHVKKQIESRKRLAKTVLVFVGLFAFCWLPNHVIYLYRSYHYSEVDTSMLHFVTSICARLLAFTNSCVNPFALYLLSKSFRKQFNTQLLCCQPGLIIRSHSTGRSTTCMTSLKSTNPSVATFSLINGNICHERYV
Positions of bridges follow the written chain, without caps; N, C: chain ends. Non-standard residues stand in square brackets, D forms with d. Residues, ends and D or L forms follow the SMILES beside them.

response.value for CC(C)C[C@@H]1NC(=O)[C@H](Cc2c[nH]cn2)NC(=O)[C@@H](C)NC(=O)[C@H](C(C)C)NC(=O)[C@H](C)NC(=O)[C@H](Cc2c[nH]c3ccccc23)NC(=O)[C@H](CCC(N)=O)NC(=O)[C@H](CC(N)=O)NC(=O)[C@H](Nc2ccc([N+](=O)[O-])cc2[N+](=O)[O-])CCCCNC1=O [PTC 809] (field: IC50) = > 10 µM

response.value for CC(=O)N[C@H]1CCCCNC(=O)[C@H](CC(C)C)NC(=O)[C@H](Cc2c[nH]cn2)NC(=O)[C@H](C)NC(=O)[C@H](C(C)C)NC(=O)[C@H](C)NC(=O)[C@H](Cc2c[nH]c3ccccc23)NC(=O)[C@H](CCC(N)=O)NC(=O)[C@H](CC(N)=O)NC1=O [PTC 803] (Ac-KNQWAVAHL; lactam 1-C) (field: IC50) = > 10 µM

response.value for CC(=O)N[C@@H]1CCCCNC(=O)[C@H](CC(C)C)NC(=O)[C@H](Cc2c[nH]cn2)NC(=O)[C@H](C)NC(=O)[C@H](C(C)C)NC(=O)[C@H](C)NC(=O)[C@H](Cc2c[nH]c3ccccc23)NC(=O)[C@H](CCC(N)=O)NC(=O)[C@H](CC(N)=O)NC1=O [PTC 805] (Ac-[dK]NQWAVAHL; lactam 1-C) (field: IC50) = > 10 µM
